Recorded measurements of inhibition, one per entry
experiment: VP16 transactivation inhibitors, counter-screen for SRC1 inhibitor project, cell-based, luminescence, high throughput (AID 588824); conditions: cell-based VP16 transactivation luciferase luminescence; at 3.6 µM; active compounds read high
Supply the numeric figure in %, leaving out any unit text.

COMPOUND: COc1ccc(-c2oc3ccc(N4CCOCC4)cc3c2C#CCO)cc1
inhibition / %: 18.5

COMPOUND: Cc1ccc(-c2csc(=Nc3cccnc3)n2CCCn2ccnc2)cc1C
inhibition / %: 45.6

COMPOUND: Nc1cc2ccncc2c2ccccc12
inhibition / %: 47.8

COMPOUND: CC(=O)c1cn(CCOc2cc(C)ccc2C)c2ccccc12
inhibition / %: 33.7

COMPOUND: Cc1c(C)c2ccc(OCC(=O)Nc3ccccn3)c(C)c2oc1=O
inhibition / %: 59.6

Value of inhibition reported for the compound "O=C(c1ccccc1)c1c2c(cc3sc4ccccc4[n+]13)-c1cccc3cccc-2c13" is 64.6

Value of inhibition reported for the compound "O=C(CSc1nc(C2CC2)nc2ccccc12)Nc1cccc(O)c1" is 1.43

Value of inhibition reported for the compound CC1OC2CC(=O)OC2C2=C1C(=O)c1c(O)cccc1C2=O (configuration not stated) is 95.2

Value of inhibition reported for the compound COc1cccc2c1C(=O)c1c(O)c3c(c(O)c1C2=O)CC(O)(C(C)=O)CC3OC1CC(N(C)C)C(O)C(C)O1 (configuration not stated) is 95.3

Value of inhibition reported for the compound "Cc1ccc2[nH]cc(/C=C/c3cc[n+](C)cc3)c2c1" is 59.7

Value of inhibition reported for the compound CCC1(c2ccc(F)cc2)NC(=O)N(CC(=O)NCC(=O)Nc2cccc(C)c2C)C1=O (configuration not stated) is 6.8

All values here come from PubChem BioAssay.
